# maps each entry to its molar absorptivity ε
- TEST: Luminescence measurements of Eu(III) chelates with the ligands
- Format: physicochemical
- TEST_SETTINGS: Eu(III) complex of the ligand; 10 mM NH3-HCl buffer, pH 8.3

The cases that follow already have their molar absorptivity ε on record.
MOLECULE	molar absorptivity ε
O=C(O)CN(CC(=O)O)Cc1cc(-c2ccc3c(c2)C(CC(=O)O)(CC(=O)O)c2ccccc2-3)cc(CN(CC(=O)O)CC(=O)O)n1	35 000 cm^−1M^−1
O=C(O)CN(CC(=O)O)Cc1cc(C#Cc2ccc3c(c2)C(CC(=O)O)(CC(=O)O)c2ccccc2-3)cc(CN(CC(=O)O)CC(=O)O)n1	38 200 cm^−1M^−1
O=C(O)CN(CC(=O)O)Cc1cc(-c2ccc3c(c2)Cc2ccccc2-3)cc(CN(CC(=O)O)CC(=O)O)n1	104 000 cm^−1M^−1

Then this molecule:
Exercise: Report molar absorptivity ε for O=C(O)CN(CC(=O)O)Cc1cc(C#Cc2ccccc2)cc(CN(CC(=O)O)CC(=O)O)n1 [Ref ligand, reference compound] please.
Solution: 26 950 cm^−1M^−1

Source of measurements: patent US10365286B2
